# test.protocol: RP, Waters ACQUITY UPLC HSS T3, 100 × 2.1 mm, 1.8 µm, 30 °C, 0.3 mL/min, estimated dead time 0.73 min; A: water + 0.1% formic acid, pH 3; B: methanol + 0.1% formic acid, pH 3; gradient (min/%B) 0/0 6/0 56/100 60/100
# assay.setup: stereoisomer not certain
Use rule met when the recorded LC retention time is no lower than 20 min; use rule not met when it is lower.

O=C1CCCN1 [2-pyrrolidinone]; rule not met
COc1ccc(C=O)cc1 [anisaldehyde]; rule met
COc1cc(O)c2c(=O)c(O)c(-c3ccc(O)c(OC)c3)oc2c1 [rhamnazin]; rule met
C[C@@H](O)[C@H](N)C(=O)O [L-threonine]; rule not met

Decide: is the reported value of LC retention time for CC(=O)CCC=C(C)CCC=C(C)C [geranyl acetone] equal to or greater than 20 min? rule met

Record: CC(C)=C1CCC(C)CC1=O [(R)-(+)-pulegone] rule met

Record: CCCCC/C=C\C/C=C\CCCCCCCC(=O)O [linoleic acid] rule met

Record: CC1=C(C=CC(C)O)C(C)(C)CCC1 (stereo not given) [b-ionol] rule met

----------
Entries annotated with measured log10 of LC retention time
# test.protocol: RP, Waters ACQUITY UPLC HSS T3, 100 × 2.1 mm, 1.8 µm, 30 °C, 0.3 mL/min, estimated dead time 0.73 min; A: water + 0.1% formic acid, pH 3; B: methanol + 0.1% formic acid, pH 3; gradient (min/%B) 0/0 6/0 56/100 60/100
# assay.setup: stereoisomer not certain
// do not treat as linear: log10 of LC retention time, unit min

Use these answered entries as a reference point.
COc1cc(-c2oc3cc(=O)cc(OC4OC(CO)C(O)C(O)C4O)c-3cc2OC2OC(CO)C(O)C(O)C2O)cc(OC)c1O (centres undefined) [malvidin-3,5-diglucoside]; 1.32
NCCCCCN [cadaverine]; 0.04
COc1cc(-c2[o+]c3cc(O)cc(O)c3cc2OC2OC(CO)C(O)C(O)C2O)cc(O)c1O (centres undefined) [petunidin-3-glucoside]; 1.36
Cc1c[nH]c2ccccc12 [3-methyl indole]; 1.53
NCCCNCCCCNCCCN [spermine]; -0.01

Reported log10 of LC retention time for COc1cc(-c2oc3cc(=O)cc4oc(C(=O)O)cc(c2OC2OC(CO)C(O)C(O)C2O)c43)cc(OC)c1O (centres undefined) [vitisin A] : what is it? 1.45

Record: C[C@@H](O)[C@H](O)[C@H](O)[C@@H](O)C=O [D-(+)-fucose] 0.26

Record: COC1C(O)C(O)C(O)C(O)C1O (centres undefined) [pinitol] 0.15

Record: O=C(OCc1ccccc1)c1ccccc1 [benzyl benzoate] 1.64

----------
Entries annotated with measured log10 of LC retention time
# test.protocol: RP, Waters ACQUITY UPLC HSS T3, 100 × 2.1 mm, 1.8 µm, 30 °C, 0.3 mL/min, estimated dead time 0.73 min; A: water + 0.1% formic acid, pH 3; B: methanol + 0.1% formic acid, pH 3; gradient (min/%B) 0/0 6/0 56/100 60/100
# assay.setup: stereoisomer not certain
// do not treat as linear: log10 of LC retention time, unit min

Use these answered entries as a reference point.
CCCCCCCCC(=O)O [nonanoic acid]; 1.63
C[N+](C)(C)CCO [choline]; 0.15
NC(=O)C[C@H](N)C(=O)O [L-asparagine]; 0.10
C1COCCN1 [morpholine]; 0.15
O=C(O)c1ccccc1 [benzoic acid]; 1.42

Reported log10 of LC retention time for COC(=O)c1ccccc1O [methylsalicylate ester] : what is it? 1.54

Record: CC1OC(Oc2c(-c3ccc(O)c(O)c3)oc3cc(O)cc(O)c3c2=O)C(O)C(O)C1O (stereo not drawn) [quercitrin] 1.49

Record: O=C(O)C1OC(Oc2c(-c3ccc(O)cc3)oc3cc(O)cc(O)c3c2=O)C(O)C(O)C1O (stereo not drawn) [kaempferol 3-O-glucuronide] 1.49

Record: CCNCC [diethylamine] 0.23

----------
Entries annotated with measured LC retention time
# test.protocol: RP, Waters ACQUITY UPLC HSS T3, 100 × 2.1 mm, 1.8 µm, 30 °C, 0.3 mL/min, estimated dead time 0.73 min; A: water + 0.1% formic acid, pH 3; B: methanol + 0.1% formic acid, pH 3; gradient (min/%B) 0/0 6/0 56/100 60/100
# assay.setup: stereoisomer not certain
Write the value in min as a bare number.

Use these answered entries as a reference point.
O=Cc1c[nH]c2ccccc12; 25.1
CC1OC(OCC2OC(Oc3cc4c(O)cc(O)cc4[o+]c3-c3ccc(O)c(O)c3)C(O)C(O)C2O)C(O)C(O)C1O (stereo not given) [cyanidin-3-rutinoside]; 23.1
NCCc1ccc(O)cc1; 6.2
CCCCCCCCCCCCCCCCCC(=O)OC [methyl stearate]; 57.8
O=c1[nH]c(=O)c2[nH]cnc2[nH]1; 6.01
COc1cc(-c2oc3cc(=O)cc(O)c-3cc2OC2OC(CO)C(O)C(O)C2O)cc(OC)c1O (stereo not given) [malvidin-3-galactoside]; 24.2
CCC=CCC=CCC=CCCCCCCCC(=O)OC [methyl linolenate]; 54.5
CCCCCCCCC=CCCCCCCCC(=O)OC [methyl oleate]; 56.5
CN(C)c1ccc(C=CC=O)cc1; 34.5

Reported LC retention time for N[C@@H](CC(=O)O)C(=O)O : what is it? 1.28

----------
# test.protocol: RP, Waters ACQUITY UPLC HSS T3, 100 × 2.1 mm, 1.8 µm, 30 °C, 0.3 mL/min, estimated dead time 0.73 min; A: water + 0.1% formic acid, pH 3; B: methanol + 0.1% formic acid, pH 3; gradient (min/%B) 0/0 6/0 56/100 60/100
# assay.setup: stereoisomer not certain
measured.property: log10 LC retention time (log10 of the value in min)
// do not treat as linear: log10 of LC retention time, unit min

COc1cc(C=CC(=O)OC(C(=O)O)C(O)C(=O)O)ccc1O (stereo not given); 1.29

Reported log10 LC retention time for N[C@@H](CCCCN[C@@H](CCC(=O)O)C(=O)O)C(=O)O : what is it? 0.14

Record: CC(=O)NC1C(O)CC(O)(C(=O)O)OC1C(O)C(O)CO (stereo not given) 0.18

Record: CCC(=O)OCC=C(C)CCC=C(C)C [geranyl propionate] 1.68

----------
# test.protocol: RP, Waters ACQUITY UPLC HSS T3, 100 × 2.1 mm, 1.8 µm, 30 °C, 0.3 mL/min, estimated dead time 0.73 min; A: water + 0.1% formic acid, pH 3; B: methanol + 0.1% formic acid, pH 3; gradient (min/%B) 0/0 6/0 56/100 60/100
# assay.setup: stereoisomer not certain
Entries annotated with measured LC retention time

Use these answered entries as a reference point.
O=C(O)CO; 2.3 min
O=C(C=CC=Cc1ccc2c(c1)OCO2)N1CCCCC1; 40.7 min
O=c1c(OC2OC(C(O)CO)C(O)C2O)c(-c2ccc(O)c(O)c2)oc2cc(O)cc(O)c12 (stereo not given) [quercetin 3-glucoside]; 29.1 min

Reported LC retention time for Cc1ncc(CO)c(C=O)c1O : what is it? 3.77 min

Record: COC(=O)CCS [methyl-3-mercaptoproprionate] 33.8 min

Record: O=c1ccc2ccc(O)cc2o1 23.9 min

Record: CCCCCC=CCC=CCC=CCC=CCCCC(=O)O 53.5 min

Record: Oc1ccc(C2Oc3cc(O)cc4c3C2c2cc(O)cc3c2C(c2cc(O)cc5c2C4C(c2ccc(O)cc2)O5)C(c2ccc(O)cc2)O3)cc1 (stereo not given) 33 min

----------
# test.protocol: RP, Waters ACQUITY UPLC HSS T3, 100 × 2.1 mm, 1.8 µm, 30 °C, 0.3 mL/min, estimated dead time 0.73 min; A: water + 0.1% formic acid, pH 3; B: methanol + 0.1% formic acid, pH 3; gradient (min/%B) 0/0 6/0 56/100 60/100
# assay.setup: stereoisomer not certain
measured.property: LC retention time (min)
Write the value in min as a bare number.

Use these answered entries as a reference point.
O=CC(O)C(O)C(O)C(O)CO (stereo not given); 1.43
O=C(O)C1CNCCN1 (stereo not given); 1.19
CCC(C)CN (stereo not given); 6.5
O=C(C=Cc1ccc(O)c(O)c1)OC1CC(O)(C(=O)O)CC(O)C1O (stereo not given); 18
CCCCCCCCCCCCCC(=O)OC [methyl myristate]; 54.4

Attention now turns to another entry.
Reported LC retention time for Oc1cc(O)c2c(c1)OC(c1ccc(O)c(O)c1)C(O)C2 (stereo not given) [epicatechin] : what is it? 20.5

----------
Entries annotated with measured LC retention time
# test.protocol: RP, Waters ACQUITY UPLC HSS T3, 100 × 2.1 mm, 1.8 µm, 30 °C, 0.3 mL/min, estimated dead time 0.73 min; A: water + 0.1% formic acid, pH 3; B: methanol + 0.1% formic acid, pH 3; gradient (min/%B) 0/0 6/0 56/100 60/100
# assay.setup: stereoisomer not certain
Write the value in min as a bare number.

O=c1c(O)c(-c2ccc(OC3OC(CO)C(O)C(O)C3O)c(O)c2)oc2cc(O)cc(O)c12 (stereo not drawn) [quercetin 4'-glucoside]; 30.4
O=C(O)C=Cc1ccccc1; 31.8
Oc1cc(O)c2c(c1)OC(c1ccc(O)c(O)c1)C(O)C2c1c(O)cc(O)c2c1OC(c1ccc(O)c(O)c1)C(O)C2 (stereo not drawn); 18.1
CC(C)C(O)(CC(=O)O)C(=O)O (stereo not drawn); 18.1
Cc1cc2nc3c(=O)[nH]c(=O)nc-3n(CC(O)C(O)C(O)COP(=O)(O)O)c2cc1C (stereo not drawn); 21.9

Reported LC retention time for O=C1CC(c2ccc(O)cc2)Oc2cc(OC3OC(CO)C(O)C(O)C3O)cc(O)c21 (stereo not drawn) [naringenin 7-glucoside] : what is it? 27.9

Record: CC(C)CCCC(C)C1CCC2C3CC=C4CC(O)CCC4(C)C3CCC12C (stereo not drawn) 60.2

Record: COc1cc(C(=O)O)cc(OC)c1O 21.9
